Values from ChEMBL document CHEMBL1138105

Assign IC50 to each entry below.
Target: Delta-type opioid receptor (Mus musculus, UniProt P32300)
Sequence (P32300 whole entry): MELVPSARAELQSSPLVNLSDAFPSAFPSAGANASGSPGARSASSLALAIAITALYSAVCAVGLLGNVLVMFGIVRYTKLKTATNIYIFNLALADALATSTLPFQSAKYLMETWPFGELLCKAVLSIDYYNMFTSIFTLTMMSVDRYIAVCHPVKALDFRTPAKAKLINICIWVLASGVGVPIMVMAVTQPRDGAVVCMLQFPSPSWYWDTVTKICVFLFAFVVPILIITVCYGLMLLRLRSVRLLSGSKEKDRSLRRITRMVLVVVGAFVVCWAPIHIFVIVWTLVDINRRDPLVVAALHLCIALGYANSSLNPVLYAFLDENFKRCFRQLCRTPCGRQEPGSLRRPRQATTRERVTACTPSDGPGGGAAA
Answers are plain numbers, in nM.

I would be grateful if you could provide IC50 for each of the following entries.
1. C[C@@H]1CN([C@@H](c2ccccc2)c2ccc3c(c2)CN(CCC(=O)O)C3)[C@@H](C)CN1Cc1ccccc1
2. COc1cccc([C@@H](c2ccc3c(c2)CN(CCC(=O)O)C3)N2C[C@@H](C)N(Cc3ccccc3)C[C@@H]2C)c1

Result:
1. 63.1
2. 631

Query: Param request: IC50 | system Delta-type opioid receptor (Mus musculus, UniProt P32300) | item "COc1cccc([C@@H](c2ccc3c(c2)CN(C(=O)CC(=O)O)CC3)N2C[C@@H](C)N(Cc3ccccc3)C[C@@H]2C)c1"
Result: 15.8
